assayNotes: NCI Yeast Anticancer Drug Screen. Data for the mec2-1 strain (AID 157)
experimentalContext: S. cerevisiae mec2-1 strain, at 50.0 µM, active compounds read high
Compounds without any hit were thinned out: in the full panel of roughly 79,000, 15% have a hit.
propertyName: growth inhibition (%)
Write the value in % as a bare number.

INSERT INTO measurements (compound, observedvalue) VALUES
  ('CCCCOP(=O)(Cc1ccccc1)Oc1ccccc1 (stereo not drawn)', 32),
  ('CC1CC(O)C(=O)C(O[C@@H]2C[C@@H]3CC[C@@H]4[C@H](CC[C@]5(C)C(C6=CC(=O)OC6)CC[C@]45O)[C@@]3(C=O)C[C@H]2O)O1 (stereo partly drawn)', 8.5),
  ('OC1C2CCC1C(N1CCOCC1)CC2 (stereo not drawn)', 3.85),
  ('C1CCN2CC34CC(CC5CCCN(C6CCCC3N6)C54)C2C1 (stereo not drawn)', -43.1),
  ('O=C(Cc1ccccc1)OCC1CCCO1 (stereo not drawn)', -6.6),
  ('CC(=N\O)/C(C)=N/O.CC(=N\O)/C(C)=N/O.CC(=N\O)/C(C)=N/O.CC(=N\O)/C(C)=N/O.[Cu].[Cu]', 12.9),
  ('COc1ccc(C2C=C(c3ccc4c(c3)OCO4)Oc3c2c(=O)oc2ccccc32)cc1OC (stereo not drawn)', 4.1),
  ('CC(C)(C)c1cc(C=C(C#N)C#N)cc(C(C)(C)C)c1O', 10.6);

Recorded growth inhibition for CCOP(=O)(OCC)N1C(C)C1C (stereo not drawn) , please?
2.8

Same again, this time with `CNC(=O)C(Cl)Cl`
4.85

Would you mind doing CC(Cc1ccc2c(c1)OCO2)NCC(O)c1ccc(O)c(O)c1 (stereo not drawn) as well?
-20.2

* * *

assayNotes: NCI Yeast Anticancer Drug Screen. Data for the rad50 strain (AID 155);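 further: 0% = growth of vehicle-only cultures of the same strain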
experimentalContext: S. cerevisiae rad50 strain growth inhibition; at 50.0 µM; active compounds read high
This is part of a sample that, as a whole, favours compounds with a hit. Of some 79,000 tested, about 15% had one in any assay.
The entries below are paired with their reported growth inhibition.
State the answer as a number, implicitly in %.

Example molecules with recorded growth inhibition:
INSERT INTO assay_data (molecule, propertyname, observedvalue) VALUES
  ('CCC[As](=O)(O)Cc1ccccc1C', 'growth inhibition', 4.3),
  ('CCN1CCc2cc(OC)c(OC)cc2C1', 'growth inhibition', 0.15),
  ('Nc1c([N+](=O)[O-])cncc1[N+](=O)[O-]', 'growth inhibition', -30.6),
  ('CO[C@H](C)[C@](O)(C(=O)OCC1=CCN2CC[C@@H](O)[C@H]12)C(C)C', 'growth inhibition', -11.4),
  ('COC(=O)C(CCC(=O)O)NC(=O)OCc1ccccc1 (stereo not drawn)', 'growth inhibition', 40.5);

# input molecule: O=[N+]([O-])OC(c1ccncc1)C(O[N+](=O)[O-])c1ccncc1 (stereo not drawn) ; wanted: its growth inhibition
7.7

Entry `O=C1NC(=O)C(=C/C=C/c2ccccc2)C(=O)N1` please
34.2

How about `Clc1ccc(-c2ccccc2)cc1Cl` ?
12.9

Entry to check: CC1(Cl)C(=O)NC(=O)NC1O (stereo not drawn)
4.45

Okay, and `Cc1ccc(C)c(NP(=O)(Nc2cc(C)ccc2C)N(CCCl)CCCl)c1` ?
30.2

Next: `COc1ccc([N+](=O)[O-])cc1`
23.6

Another molecule to check: CC1(C)N=C(N/N=C/c2ccccc2)SP1(=O)NNc1ncccn1 (stereo not drawn)
-7.85

Note, next up: `CC(=O)CCC(=O)O`
-7.05

* * *

assayNotes: NCI Yeast Anticancer Drug Screen. Data for the bub3 strain (AID 167)
experimentalContext: S. cerevisiae bub3 mutant strain, at 50.0 µM, active compounds read high
Compounds without any hit were thinned out: in the full panel of roughly 79,000, 15% have a hit.
Parameter: growth inhibition. Scope: all listed entries.
# number only, unit % dropped from output

Some solved entries appear below for comparison.
INSERT INTO assay_data (molecule, propertyname, observedvalue) VALUES
  ('NS(=O)(=O)CC1CC[CH-]CC1.[Cl-].[Cl-].[Cl-].[Cl-].[Cl-].[Sb+5].c1ccncc1', 'growth inhibition', -20.4),
  ('CC1=CP(=O)(OC(C)C)CC(C)=C1Cl (stereo not given)', 'growth inhibition', -25.8),
  ('COc1cc(C=C2C(=O)NC(=S)NC2=O)cc(OC)c1OC', 'growth inhibition', -1.35),
  ('ClCCN(CCCl)c1ccc(/C=N/N=C2c3ccccc3-c3ccccc32)cc1', 'growth inhibition', -18.9),
  ('O=C(O)C(F)(F)C(F)(Cl)C(F)(F)C(F)(Cl)C(F)(F)Cl (stereo not given) (tested in a mixture with another compound)', 'growth inhibition', 1.1),
  ('C1=C(c2ccccc2)CCN(C2(c3ccccc3)CCCCC2)C1', 'growth inhibition', 16.5),
  ('O=C(Nc1ccccc1)N(C1=NCC(CI)S1)c1ccc(F)cc1F (stereo not given)', 'growth inhibition', 2.95),
  ('CCCOP(=O)(OCCC)C(=O)Nc1ccc(Br)cc1', 'growth inhibition', 25);

Which value of growth inhibition has been reported for CCCCCCCCCNP(=O)(OCc1ccccc1)N(CCCl)CCCl (stereo not given) in the records?
-0.4

Same question for `O=C(Cc1ccc2c(c1)OCO2)c1cn(C(=O)Cc2ccc3c(c2)OCO3)c2ccccc12` please.
0.35

* * *

assayNotes: NCI Yeast Anticancer Drug Screen. Data for the bub3 strain (AID 167)
experimentalContext: S. cerevisiae bub3 mutant strain, at 50.0 µM
Compounds without any hit were thinned out: in the full panel of roughly 79,000, 15% have a hit. Calls of active or inactive are those of the source. Rule as the data show it: active = growth inhibition above about 70%; inactive = the rest.
Hi! Could you answer with just one of these? True = active, False = inactive

Use the examples below as a reference point.
INSERT INTO results (molecule, categorylabel) VALUES
  ('CC1(C)CCC[N+]1(C)CCC(C(N)=O)(c1ccccc1)c1ccccc1 (configuration not stated)', 'False'),
  ('CCC[As](=O)(O)CC[As](=O)(O)CCC', 'False'),
  ('COc1cc2c(cc1OC)-c1c3c(cc4c1[C@@H](C2)N(C)CC4)OCO3', 'False'),
  ('CO[C@H]1C[C@H](O[C@H]2CC[C@]3(C=O)[C@H]4CC[C@]5(C)[C@@H](C6=CC(=O)OC6)CC[C@]5(O)[C@@H]4CC[C@]3(O)C2)O[C@H](C)[C@H]1O', 'False'),
  ('COc1ccc2c(c1O)C13C=C(OS(=O)(=O)c4ccc(C)cc4)C=CC1C(C2)N(C)CC3 (configuration not stated)', 'False');

Recorded call for `ClCc1cccnc1` ?
False

Input `C[n+]1ccc2ccccc2c1-c1c2ccccc2cc[n+]1C`
False

* * *

assayNotes: NCI Yeast Anticancer Drug Screen. Data for the mlh1 rad18 strain (AID 175)
experimentalContext: S. cerevisiae mlh1 rad18 strain growth inhibition; at 50.0 µM; active compounds read high
This is part of a sample that, as a whole, favours compounds with a hit. Of some 79,000 tested, about 15% had one in any assay.
The entries below are paired with their reported growth inhibition.
Please give a number only; it is taken to be in %.

If you can, please state the reported growth inhibition value of `CC(C)N1C(=O)NC(=O)C2(CCCC2)C1=O` .
-2.5

Please give the result for CC1CC(C)(C)[N+](C)(CCC(C(N)=O)(c2ccccc2)c2ccccc2)C1 (stereo not drawn) too.
3.05

How about `CCOC(=O)P(=O)(OCC)OCC` ?
-1.1

* * *

Listed compounds paired with reported growth inhibition
assayNotes: NCI Yeast Anticancer Drug Screen. Data for the mec2-1 strain (AID 157)
experimentalContext: S. cerevisiae mec2-1 strain, at 50.0 µM, active compounds read high
This is part of a sample that, as a whole, favours compounds with a hit. Of some 79,000 tested, about 15% had one in any assay.
Field: numeric (%). Do not append units.

INSERT INTO results (compound, propertyname, measurementunit, observedvalue) VALUES
  ('C#C[C@]1(O)CC[C@H]2[C@@H]3CCC4=C/C(=N/OC(=O)c5cccc6c(=O)c7ccccc7[nH]c56)CC[C@@H]4[C@H]3CC[C@@]21C', 'growth inhibition', '%', -4.5);

Form field: reported growth inhibition of `CC1(C)C(=O)N(O)C(C)(C)N1N=O`
13.4

Now the same for `CC(C)(C#N)O[N+](=O)[O-]`
7.3

Proceed to `CCCCOP(=O)(O)OCCCC.[V]`
-1.55

`CCC1(c2ccc(C)cc2)C(=O)NC(=S)NC1=O` ?
-8.15

And then CCCCCCCCCNP(=O)(OCc1ccccc1)N(CCCl)CCCl (stereo not given) , what is it?
37.2

Also `C1=CC2CCC1C2` ?
3.75

* * *

assayNotes: NCI Yeast Anticancer Drug Screen. Data for the sgs1 mgt1 strain (AID 161);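 further: 0% = growth of cultures given vehicle only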
experimentalContext: S. cerevisiae sgs1 mgt1 strain, at 50.0 µM, active compounds read high
The panel holds about 79,000 compounds, 15% with a hit somewhere; the sample as a whole holds those more often.
propertyName: growth inhibition (%)
# value in %; strip the unit string

INSERT INTO results (compound, measurementunit, observedvalue) VALUES
  ('O=C1CCCCC1CN1CCCCC1 (centres undefined)', '%', -2.45),
  ('O=[N+]([O-])c1ccc(/C=C/c2cc(Cl)ccc2S(=O)(=O)F)c(Cl)c1', '%', 6.8),
  ('NC(=O)c1c[se]c(C2OC(CO)C(O)C2O)n1 (centres undefined)', '%', -9.75),
  ('COc1ccc2c3c1OC1C(OC)(OC)C=C[C@@]4(Br)[C@@H](C2)N(CC2CC2)CC[C@]314 (some centres undefined)', '%', -35.1),
  ('CN/N=C(/CCN1CCCC1)CC(c1ccccc1)c1c(O)c2ccccc2oc1=O (centres undefined)', '%', 29.6);

Requested read-out: growth inhibition. Entry: CC1OC(O[C@@H]2C=C3CC[C@@H]4[C@H](CC[C@]5(C)[C@@H](c6ccc(=O)oc6)CC[C@]45O)[C@@]3(C)CC2)C(O)C(OC2OC(CO)C(O)C(O)C2O)C1O (some centres undefined)
-1.6

Now this one: `Cc1c2ccccc2c(C)c2c1cc[n+]1ccccc21`
15.2

Param item: CN(C)CC1C(O)C2CCN1CC2 (centres undefined)
-3.1

Here is the next compound: COc1ccc(C2C=C(c3ccc4c(c3)OCO4)Oc3c2c(=O)oc2ccccc32)cc1OC (centres undefined)
10.1

# iterate: `COc1ccc2[nH]cc(CCN(C)C)c2c1`
1.85

Repeat with `CC1(C)N=C(N)N=C(N)N1c1ccc(CCC(=O)Nc2ccc(S(=O)(=O)F)cc2)cc1`
76.8

Quick one: `O=[N+]([O-])c1cccc(C(Cl)Cl)c1`
22.4

Now try `N#CCc1ccccc1.N#CCc1ccccc1.[C-]#[O+].[C-]#[O+].[C-]#[O+].[C-]#[O+].[W]` .
-7.1

Same question, `CCC(=O)N/N=C(\N)N[N+](=O)[O-]` this time
-20.5

Can you check `CC(C)CC(C)(C)COP(=S)(OCC(C)(C)CC(C)C)OCC(C)(C)CC(C)C` next?
0.8

Another compound: `CCCCOP(=O)(OCCCC)SCl`
3.2

Again, but for `CNC(=O)CCl`
-0.45
